This section presents molecules with their documented pIC50 values.
# system: Human indoleamine 2,3-dioxygenase1 (hIDO1) (Homo sapiens (Human))
# Sequence (P14902 whole entry): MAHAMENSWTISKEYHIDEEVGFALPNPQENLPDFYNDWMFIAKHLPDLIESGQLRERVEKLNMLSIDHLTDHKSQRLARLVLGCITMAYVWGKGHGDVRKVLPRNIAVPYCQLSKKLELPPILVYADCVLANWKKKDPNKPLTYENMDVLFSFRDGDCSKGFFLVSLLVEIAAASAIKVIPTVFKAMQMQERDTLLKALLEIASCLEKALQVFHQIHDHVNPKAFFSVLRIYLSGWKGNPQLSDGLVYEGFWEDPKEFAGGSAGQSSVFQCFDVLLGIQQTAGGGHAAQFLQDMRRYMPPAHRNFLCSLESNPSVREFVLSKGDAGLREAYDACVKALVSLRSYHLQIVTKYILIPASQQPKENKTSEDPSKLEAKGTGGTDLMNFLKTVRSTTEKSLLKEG
pIC50: −log10 of the molar value. Counter-ions that a name gives are not always drawn.
observable: pIC50

# molecule, reported-result
measured = [
    ("Cc1cc(-c2nccc3c(Nc4cccc(F)c4)c(N)oc23)ccn1 [Compound 243]", "> 6.70"),
    ("CC(C)CNC(=O)c1cc(-c2nccc3c(Nc4ccc(F)c(Cl)c4)c(N)oc23)ccn1 [Compound 252]", "> 6.70"),
    ("CCc1ccccc1Nc1c(N)sc2ccccc12 [Compound 232, hydrochloride]", "< 6.00"),
    ("Nc1oc2cnc(F)cc2c1Nc1cccc(C(F)(F)F)c1 [Compound 221]", "> 6.70"),
    ("CC(C)(C)c1cc(-c2nccc3c(Nc4ccc(F)c(Cl)c4)c(N)oc23)ccn1 [Compound 259]", "> 6.70"),
    ("Nc1oc2cnccc2c1Nc1cccnc1 [Compound 49]", "< 6.00"),
    ("Nc1oc2c(-c3ccnc(N4CCOCC4)c3)nccc2c1Nc1ccc(F)c(Cl)c1 [Compound 154]", "> 6.70"),
    ("Cc1cc(-c2cccc3c(Nc4cccc(Cl)c4)c(N)sc23)ccn1 [Compound 248]", "> 6.70"),
    ("Nc1oc2cnccc2c1Nc1ccccc1Cl [Compound 4]", "< 6.00"),
    ("C#Cc1cccc(Nc2c(N)oc3cnccc23)c1 [Compound 68]", "6.00 to 6.70"),
    ("COCCNC(=O)c1ccc(-c2nccc3c(Nc4ccc(F)c(Cl)c4)c(N)oc23)cc1 [Compound 169]", "> 6.70"),
    ("Nc1oc2c(-c3ccnc(C(=O)N4CCOCC4)c3)nccc2c1Nc1ccc(F)c(Cl)c1 [Compound 272]", "> 6.70"),
    ("Nc1oc2cnccc2c1Nc1ccc(Cl)c(Cl)c1 [Compound 15]", "6.00 to 6.70"),
    ("Nc1oc2cnccc2c1Nc1cccc(F)c1 [Compound 46]", "6.00 to 6.70"),
    ("Cc1ccc(Nc2c(N)oc3cnccc23)c(C)c1 [Compound 54]", "< 6.00"),
    ("Nc1oc2cnccc2c1Nc1cccc(CC2CCC2)c1 [Compound 89]", "< 6.00"),
    ("CNC(=O)c1cc(-c2nccc3c(Nc4ccc(F)c(F)c4)c(N)oc23)ccn1 [Compound 223]", "> 6.70"),
    ("Nc1oc2cnccc2c1Nc1ccc(F)c(Br)c1 [Compound 58]", "> 6.70"),
    ("N#Cc1nccc2c(Nc3ccc(F)c(F)c3)c(N)oc12 [Compound 185]", "6.00 to 6.70"),
    ("Nc1sc2ccccc2c1Oc1cccc(Cl)c1 [Compound 127, hydrochloride]", "< 6.00"),
    ("Nc1oc2cnc(F)cc2c1Nc1ccccc1Cl [Compound 218]", "6.00 to 6.70"),
    ("CCc1nccc2c(Nc3ccc(F)c(C(F)(F)F)c3)c(N)oc12 [Compound 74]", "> 6.70"),
    ("Cc1ncc(CO)c2c(Nc3ccc(F)c(Cl)c3)c(N)oc12 [Compound 56]", "< 6.00"),
    ("Cc1ncc(C)c2c(Nc3ccc(F)c(Cl)c3)c(N)oc12 [Compound 72]", "6.00 to 6.70"),
    ("Nc1oc2cnccc2c1Nc1cc(Cl)c(F)cc1F [Compound 51]", "< 6.00"),
    ("Nc1oc2cnccc2c1Nc1cccc(I)c1 [Compound 20]", "> 6.70"),
]
